Data origin: patent US20240158446A1

Molecular target: UniProt:P01116
Sequence (P01116 whole entry): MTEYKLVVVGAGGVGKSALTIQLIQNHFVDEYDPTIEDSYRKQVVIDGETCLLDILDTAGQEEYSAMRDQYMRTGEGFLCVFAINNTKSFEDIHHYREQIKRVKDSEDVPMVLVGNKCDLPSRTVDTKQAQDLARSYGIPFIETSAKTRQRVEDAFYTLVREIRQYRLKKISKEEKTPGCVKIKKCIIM
Test: Binding to KRAS by surface plasmon resonance (SPR), Single Cycle Kinetics
Details: SPR, Single Cycle Kinetics, 1:1 binding model; GDP-bound KRAS wild-type protein; read-out: KRAS KD
readout.label: pKd
Answers are plain numbers, as −log10 of the molar value.

Guide cases for pKd, answers given:
Inquiry: Fill in the blank: the reported pKd of "CCCC[C@H]1C(=O)N[C@@H]([C@@H](C)CC)C(=O)N(C)CC(=O)N(C)[C@H]2C/C=C\CCN(C2=O)[C@@H](Cc2ccc(C(F)(F)F)cc2)C(=O)N(C)CC(=O)N[C@@H](CCc2cc(F)c(C(F)(F)F)c(F)c2)C(=O)N2C[C@H](OCC)C[C@H]2C(=O)NC2(CCC2)C(=O)N(C)[C@@H](C2CCCC2)C(=O)N(C)[C@H](C(=O)N(C)CC)CC(=O)N1C" is ____.
Reply text: 9.96

Inquiry: Same question, "CCO[C@@H]1C[C@H]2C(=O)NC3(CCC3)C(=O)N(C)[C@@H](C3CCCC3)C(=O)N(C)[C@@H](C(=O)N(C)C)CC(=O)N(C)[C@@H](CC)C(=O)N[C@@H]([C@@H](C)CC)C(=O)N(C)CC(=O)N(C)[C@H]3C/C=C\CCN(C3=O)[C@@H](Cc3ccc(C(F)(F)F)cc3)C(=O)N(C)CC(=O)N[C@@H](CCc3cc(F)c(C(F)(F)F)c(F)c3)C(=O)N2C1" this time
Reply text: 8.42

Let's switch to this compound now.
Inquiry: Please look up its pKd: "CCO[C@@H]1C[C@H]2C(=O)NC3(CCC3)C(=O)N(C)[C@@H](C3CCCC3)C(=O)N(C)[C@H](C(=O)N(C)C)CC(=O)N(C)[C@@H](CC(C)C)C(=O)N[C@@H]([C@@H](C)CC)C(=O)N(C)CC(=O)N(C)[C@H]3C/C=C\CCN(C3=O)[C@@H](Cc3ccc(F)cc3)C(=O)N(C)CC(=O)N[C@@H](CCc3cc(F)c(Cl)c(F)c3)C(=O)N2C1"
Reply text: 9.29
